test system: CCRF-CEM leukemia; assay: NCI tumour cell line growth inhibition, 48 h
REPORTED_PROPERTY: TGI

Prompt: What value of measured TGI is listed for "O=C(/C=C/c1cc(F)ccc1F)OCCc1ccccc1" ?
Completion: > 100 µM

Prompt: Further, for Cn1c2c(c3ccccc31)CC(=O)N1CCCC(C1)CC21OCCO1 (stereo unspecified) ?
Completion: > 100 µM

Prompt: Further, for CC[C@@]1(OC(=O)C(N)CCC(=O)O)C(=O)OCc2c1cc1n(c2=O)Cc2cc3ccccc3nc2-1 (stereo partly specified) ?
Completion: 0.247 µM

Prompt: Further, for CN(C(=O)C12C3C4C1C1C2C3C41C(=O)N(C)C(C)(C)C)C(C)(C)C (stereo unspecified) ?
Completion: > 50 µM

Prompt: Further, for "COc1ccccc1/C=C1\N=C(C)OC1=O" ?
Completion: > 100 µM

Prompt: Further, for NC(CCC(=O)NC(CSC(=O)N(O)c1ccc(Cl)cc1)C(=O)NCC(=O)O)C(=O)O (stereo unspecified) ?
Completion: > 0.5 µM

Prompt: Further, for "COC(=O)NN/C=C(\C=Nc1ccccc1)[N+](=O)[O-]" ?
Completion: > 100 µM

Prompt: Further, for "CN1C(=O)CN=C(c2ccccc2F)c2cc(N=C=S)ccc21" ?
Completion: > 100 µM

Prompt: Further, for "Cc1ccc2c(n1)C(=O)C(Cl)=C(Nc1ccc(N3CCN(C)CC3)cc1)C2=O" ?
Completion: 56.4 µM

Prompt: Further, for [CH3][Sn]([CH3])([CH3])[O]C(=O)C(O)c1ccccc1 (stereo unspecified) ?
Completion: > 73.5 µM

Prompt: Further, for "Cc1cc2oc(=O)c(Cl)c(Cl)c2c(C)c1Cl" ?
Completion: 7.04 µM
